target: EcFbFP (Bacillus subtilis, UniProt O34627, C62A); test: fluorescence titration of apo protein, emission at […] nm
measure: Kd (nM)
Give your result in nM as a bare value.

INSERT INTO results (structure_smiles_string, unit_tag, endpoint_value) VALUES
  ('Cc1cc2nc3c(=O)[nH]c(=O)nc-3n(C[C@H](O)[C@H](O)[C@H](O)CO)c2cc1C', 'nM', 760),
  ('Cc1cc2nc3c(=O)[nH]c(=O)nc-3n(C[C@H](O)[C@H](O)[C@H](O)COP(=O)(O)OP(=O)(O)OC[C@H]3O[C@@H](n4cnc5c(N)ncnc54)[C@H](O)[C@@H]3O)c2cc1C', 'nM', 130);

Exercise: Test system EcFbFP (Bacillus subtilis, UniProt O34627, C62A); read-out Kd; what value for Cc1cc2nc3c(=O)[nH]c(=O)nc-3n(C[C@H](O)[C@H](O)[C@H](O)COP(=O)(O)O)c2cc1C ?
Key: 180
